Tested on: c-Src;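 further: 11-residue human phosphosite peptides and single-mutation variants displayed on the E. coli surface, counted by deep sequencing, each peptide's frequency after selection divided by its frequency in the unselected input library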;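 further: frequency after pTyr selection over input frequency; kinase dosed for 20-30% of maximal phosphorylation in three min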
Experiment: phosphorylation enrichment, bacterial display (enrichment ratio); higher = better substrate or ligand; peptides without Tyr show the background
Lab note: anything with phosphorylation enrichment at or over 0.5 counts as 1 (yes); the rest go in 0 (no).

* PIYEGYGLPHA [ACTA1_Y171_A172G] | 1 (yes)
* RGLQVYHRRNA [LRP2_Y2010] | 1 (yes)
* SDVCMYRKNTY [SYNE2_Y570_I574T] | 0 (no)
* EQKKFYNAMKK [SCN5A_Y1495_YF] | 0 (no)
* PKGIGYGQGAG [CSRP3_Y73] | 0 (no)

Please turn your attention to the following entry.
Determine whether this sequence has phosphorylation enrichment no lower than 0.5: VFAPDYIAGVS [NOB1_Y366]
1 (yes)
